Protocol description: Partition coefficient, log P of the compound
Type: physicochemical
Experimental context: octanol/water
Below, each entry is listed alongside its reported logP.
Give the figure only, with no unit attached.

1) CCCCN1CCCCC1C(=O)Nc1c(C)cccc1C (stereo unspecified) [BUPIVACAINE]; 3.72
2) CC(=O)Oc1c(C)cc(OCC(O)CNC(C)C)c(C)c1C (stereo unspecified) [METIPRANOLOL]; 2.81
3) CCCNC(C)C(=O)Nc1ccccc1C (stereo unspecified) [PRILOCAINE]; 2.12
4) CC(C)NCC(O)COc1cccc2[nH]ccc12 (stereo unspecified) [PINDOLOL]; 1.83
5) C=CCOc1ccccc1OCC(O)CNC(C)C (stereo unspecified) [OXPRENOLOL]; 2.51
6) CCCCNc1ccc(C(=O)OCCN(C)C)cc1 [TETRACAINE]; 3.39
7) CCCCOc1cc(C(=O)NCCN(CC)CC)c2ccccc2n1 [DIBUCAINE]; 4.19
8) CCCCN(CCCC)CCCOC(=O)c1ccc(N)cc1 [BUTACAINE]; 4.26
9) CC(C)NCC(O)COc1cccc2[nH]c3ccccc3c12 (stereo unspecified) [CARAZOLOL]; 3.73
10) CC(C)NCC(O)COc1ccc(COCCOC(C)C)cc1 (stereo unspecified) [BISOPROLOL]; 2.15

// next item, logP requested
Reported logP for CCN(CC)CCOC(=O)c1ccc(N)cc1 [PROCAINE] : what is it?
2.03

====

Protocol description: Partition coefficient, log P by UPLC method
Format: physicochemical
Experimental context: octanol/water
Below, each entry is listed alongside its reported logP.
Give the figure only, with no unit attached.

1) CC(=O)Oc1c(C)cc(OCC(O)CNC(C)C)c(C)c1C (stereo unspecified); 3
2) CCN(CC)CCOC(=O)c1ccc(N)cc1; 2.1

Reported logP for CC(C)NCC(O)COc1cccc2[nH]ccc12 (stereo unspecified) : what is it?
1.9

Same lookup for C=CCOc1ccccc1OCC(O)CNC(C)C (stereo unspecified) , please.
2.6

Same lookup for CCCCN1CCCCC1C(=O)Nc1c(C)cccc1C (stereo unspecified) , please.
3.8

Same lookup for CC(C)NCC(O)COc1ccc(COCCOC(C)C)cc1 (stereo unspecified) , please.
2.6

====

Protocol description: Partition coefficient, log P by UPLC method
Assay type: physicochemical
Experimental context: octanol/water
Below, each entry is listed alongside its reported logP.
Give the figure only, with no unit attached.

1. CC(C)NCC(O)COc1cccc2[nH]c3ccccc3c12 (stereo unspecified) [CARAZOLOL]; 3.4
2. CCCNC(C)C(=O)Nc1ccccc1C (stereo unspecified) [PRILOCAINE]; 2.3
3. CCCCN(CCCC)CCCOC(=O)c1ccc(N)cc1 [BUTACAINE]; 4.7
4. Cc1cccc(C)c1NC(=O)C1CCCCN1C (stereo unspecified) [MEPIVACAINE]; 2.2
5. COCCc1ccc(OCC(O)CNC(C)C)cc1 (stereo unspecified) [METOPROLOL]; 2.2

Reported logP for C=CCc1ccccc1OCC(O)CNC(C)C (stereo unspecified) [ALPRENOLOL] : what is it?
3.4
